Tgt: glycosylated human PAI-1 (active form) (human, UniProt P05121 24-402, glycosylated)
Sequence (P05121 24-402 limits assumed): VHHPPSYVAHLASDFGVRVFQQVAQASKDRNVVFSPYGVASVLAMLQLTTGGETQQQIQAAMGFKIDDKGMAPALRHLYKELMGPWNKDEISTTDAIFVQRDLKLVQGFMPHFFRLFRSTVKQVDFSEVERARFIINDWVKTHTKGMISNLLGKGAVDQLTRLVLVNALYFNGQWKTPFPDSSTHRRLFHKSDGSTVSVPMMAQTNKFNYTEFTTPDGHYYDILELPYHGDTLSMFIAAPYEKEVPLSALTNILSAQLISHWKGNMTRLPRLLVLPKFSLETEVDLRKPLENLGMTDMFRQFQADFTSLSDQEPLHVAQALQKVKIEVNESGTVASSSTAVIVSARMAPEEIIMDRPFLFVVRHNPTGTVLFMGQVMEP
Assay Details: cell-based or functional assay
Recorded Endpoint: Plasminogen Activation IC50

Which value of Plasminogen Activation IC50 has been reported for A44-hv6 (antibody, V domains shown, humanized A44, HEK293; constant regions as for A44-hv1; also called LC3 x HC3; variant 6) VH: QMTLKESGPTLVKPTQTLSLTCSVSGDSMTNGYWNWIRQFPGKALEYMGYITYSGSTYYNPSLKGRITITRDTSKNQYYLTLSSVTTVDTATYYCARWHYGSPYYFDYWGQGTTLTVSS VL: DIKMTQSPSSLSASVGDRVTITCKASQDINSYLSWLQQKPGKSPKTLIYRANRSVDGVPSRFSGSGSGQDYSLTISSLQPEDLATYYCLQYDEFPPTFGGGTKLEIK in the records?
1.78 nM
